assay: Phase 1 multiple ascending dose (MAD) plasma pharmacokinetics; assay type: in vivo, human; conditions: human, plasma, oral, 560 mg, 560 mg QD, Day 14, age at least 65 years (n = 7); read-out: t1/2 (mean) (converted)
VALUE TYPE: half-life (h)
Only the number, expressed in h, is required.

Quick check: half-life of CC(C)(C)Oc1cc(CCC(C)(C)N2Cc3ccc(S(C)(=O)=O)cc3C2)ccc1O ?
12.8

* * *

assay: Phase 1 multiple ascending dose (MAD) plasma pharmacokinetics; format: in vivo, human; settings: human, plasma, oral, 280 mg, 280 mg QD, Day 14, age up to 64 years (n = 8); read-out: Tmax (median)
VALUE TYPE: Tmax (min)
Only the number, expressed in min, is required.

Quick check: Tmax of CC(C)(C)Oc1cc(CCC(C)(C)N2Cc3ccc(S(C)(=O)=O)cc3C2)ccc1O ?
52.8
